Values from ChEMBL document CHEMBL1629472

test: Cytotoxicity against rat RT2 cells expressing wild type p53 after 48 hrs by MTT assay; assay type: functional, cell-based; conditions: RT2, 48 h
measuredAttribute: IC50 (nM)
Express the result in nM but write the number alone.

Study these solved cases before continuing.
smi=C/C(=N\NC(=S)Nc1ccc(C)cc1)c1ccccn1 obsvalue=17
smi=C/C(=N\NC(=S)Nc1ccccc1Cl)c1ccccn1 obsvalue=1.4
smi=C/C(=N\NC(=S)Nc1cccc(C)c1)c1ccccn1 obsvalue=24
smi=C/C(=N\NC(=S)Nc1ccccc1)c1ccccn1 obsvalue=1.4
smi=C/C(=N\NC(=S)Nc1cccc(Cl)c1)c1ccccn1 obsvalue=9
smi=C/C(=N\NC(=S)Nc1ccccc1C)c1ccccn1 obsvalue=14

Moving on to the next compound.
Exercise: Returns the measured IC50 for the input compound. Input: `C/C(=N\NC(=S)Nc1ccc(Cl)cc1)c1ccccn1`
Solution: 3.7
